Recorded ΔTm F21T-K+ values for a group of compounds are listed next.
Tested on: F21T-K+ (human telomeric G-quadruplex, mixed parallel/hybrid)
Assay: FRET melting assay, human telomeric G4 in potassium buffer
Type: binding
Conditions: 10 µM ligand, 200 nM DNA; PIPER and 3 not reliable (spectral overlap)
ENDPOINT: ΔTm F21T-K+

>>> measured("CN1CCN(CCCN2C(=O)c3ccc4c5ccc6c7c(ccc(c8ccc(c3c48)C2=O)c75)C(=O)N(CCCN2CCN(C)CC2)C6=O)CC1")
"33 ± 1 °C"
>>> measured("CN1CCN(CCCN2C(=O)c3ccc(-c4ccc5c(c4)C(=O)N(CCCN4CCN(C)CC4)C5=O)cc3C2=O)CC1")
"1 ± 1 °C"
>>> measured("CN1CCN(CCCN2C(=O)c3ccc(C(=O)c4ccc5c(c4)C(=O)N(CCCN4CCN(C)CC4)C5=O)cc3C2=O)CC1")
"-3 ± 1 °C"
>>> measured("O=C1c2ccc3c4ccc5c6c(ccc(c7ccc(c2c37)C(=O)N1CCN1CCCCC1)c64)C(=O)N(CCN1CCCCC1)C5=O [PIPER, reference compound]")
"> 40 °C"
>>> measured("CN1CCN(CCCn2c(=O)c3cc4c(=O)n(CCCN5CCN(C)CC5)c(=O)c4cc3c2=O)CC1")
"1 ± 1 °C"
>>> measured("CN1CCN(CCCNC(=O)c2ccc(C(=O)c3ccc(C(=O)NCCCN4CCN(C)CC4)c(C(=O)NCCCN4CCN(C)CC4)c3)cc2C(=O)NCCCN2CCN(C)CC2)CC1")
"-2 ± 1 °C"
>>> measured("CN1CCN(CCCN2C(=O)c3ccc(C(c4ccc5c(c4)C(=O)N(CCCN4CCN(C)CC4)C5=O)(C(F)(F)F)C(F)(F)F)cc3C2=O)CC1")
"-2 ± 1 °C"
>>> measured("CN1CCN(CCCN2C(=O)c3ccc(Oc4ccc5c(c4)C(=O)N(CCCN4CCN(C)CC4)C5=O)cc3C2=O)CC1")
"-3 ± 1 °C"
>>> measured("CN1CCN(CCCNC(=O)c2ccc(Oc3ccc(C(C)(C)c4ccc(Oc5ccc(C(=O)NCCCN6CCN(C)CC6)c(C(=O)NCCCN6CCN(C)CC6)c5)cc4)cc3)cc2C(=O)NCCCN2CCN(C)CC2)CC1")
"9 ± 1 °C"
>>> measured("CN1CCN(CCCN2C(=O)c3ccc(Oc4ccc(C(C)(C)c5ccc(Oc6ccc7c(c6)C(=O)N(CCCN6CCN(C)CC6)C7=O)cc5)cc4)cc3C2=O)CC1")
"8 ± 3 °C"
